Test system: HeLa Kyoto
assay-comment: solubility in G1/S (NP-40 vs SDS abundance) (log2 ratio); higher = more soluble
assay-setup: cell cycle stage: G1/S
endpoint: solubility in G1/S (log2)

1. MDSSSSSSAAGLGAVDPQLQHFIEVETQKQRFQQLVHQMTELCWEKCMDKPGPKLDSRAEACFVNCVERFIDTSQFILNRLEQTQKSKPVFSESLSD [TIMM8A] : -0.653
2. MPKVKSGAIGRRRGRQEQRRELKSAGGLMFNTGIGQHILKNPLIINSIIDKAALRPTDVVLEVGPGTGNMTVKLLEKAKKVVACELDPRLVAELHKRVQGTPVASKLQVLVGDVLKTDLPFFDTCVANLPYQISSPFVFKLLLHRPFFRCAILMFQREFALRLVAKPGDKLYCRLSINTQLLARVDHLMKVGKNNFRPPPKVESSVVRIEPKNPPPPINFQEWDGLVRITFVRKNKTLSAAFKSSAVQQLLEKNYRIHCSVHNIIIPEDFSIADKIQQILTSTGFSDKRARSMDIDDFIRLLHGFNAEGIHFS [DIMT1] : -0.509
3. MLQKPRNRGRSGGQAERDRDWSHSGNPGASRAGEDARVLRDGFAEEAPSTSRGPGGSQGSQGPSPQGARRAQAAPAVGPRSQKQLELKVSELVQFLLIKDQKKIPIKRADILKHVIGDYKDIFPDLFKRAAERLQYVFGYKLVELEPKSNTYILINTLEPVEEDAEMRGDQGTPTTGLLMIVLGLIFMKGNTIKETEAWDFLRRLGVYPTKKHLIFGDPKKLITEDFVRQRYLEYRRIPHTDPVDYEFQWGPRTNLETSKMKVLKFVAKVHNQDPKDWPAQYCEALADEENRARPQPSGPAPSS [NDNL2] : 0.289

---

System: HeLa Kyoto
assay-comment: solubility change mitosis vs G1/S (difference of NP-40 vs SDS log2 ratios) (log2 ratio difference); higher = more soluble in mitosis
The following sequences are shown together with reported solubility change mitosis (log2) values.
endpoint: solubility change mitosis (log2)

1. MAEERPGAWFGFGFCGFGQELGSGRGRQVHSPSPLRAGVDICRVSASWSYTAFVTRGGRLELSGSASGAAGRCKDAWASEGLLAVLRAGPGPEALLQVWAAESALRGEPLWAQNVVPEAEGEDDPAGEAQAGRLPLLPCARAYVSPRAPFYRPLAPELRARQLELGAEHALLLDAAGQVFSWGGGRHGQLGHGTLEAELEPRLLEALQGLVMAEVAAGGWHSVCVSETGDIYIWGWNESGQLALPTRNLAEDGETVAREATELNEDGSQVKRTGGAEDGAPAPFIAVQPFPALLDLPMGSDAVKASCGSRHTAVVTRTGELYTWGWGKYGQLGHEDTTSLDRPRRVEYFVDKQLQVKAVTCGPWNTYVYAVEKGKS [RCCD1] : -0.0463
2. MRVDSSADPTMSQEQGPGSSTPPSSPTLLDALLQNLYDFGGTEGETEQKKIIKKRENKKRDVMASAALAAEPSPLPGSLIRGQRKSASSFFKELREERHCAPSGTPTGPEILAAAVPPSSLKNNREQVEVVEFHSNKKRKLTPDHNKNTKQANPSVLERDVDTQEFNLEKARLEVHRFGITGYGKGKERILEQERAIMLGAKPPKKSYVNYKVLQEQIKEKKAAKEEEKRLAQETDIFKKKKRKGQEDRKSKKKSAPSILSNGRIGQVGKFKNGTLILSPVDIKKINSSRVAK [C1ORF131] : 0.969
3. MKSSGLFPFLVLLALGTLAPWAVEGSGKSFKAGVCPPKKSAQCLRYKKPECQSDWQCPGKKRCCPDTCGIKCLDPVDTPNPTRRKPGKCPVTYGQCLMLNPPNFCEMDGQCKRDLKCCMGMCGKSCVSPVKA [SLPI] : 0.714

---

Tested on: HeLa Kyoto
assay-comment: solubility in G1/S (NP-40 vs SDS abundance) (log2 ratio); higher = more soluble
assay-setup: cell cycle stage: G1/S
endpoint: solubility in G1/S (log2)

1) MPHIDNDVKLDFKDVLLRPKRSTLKSRSEVDLTRSFSFRNSKQTYSGVPIIAANMDTVGTFEMAKVLCKFSLFTAVHKHYSLVQWQEFAGQNPDCLEHLAASSGTGSSDFEQLEQILEAIPQVKYICLDVANGYSEHFVEFVKDVRKRFPQHTIMAGNVVTGEMVEELILSGADIIKVGIGPGSVCTTRKKTGVGYPQLSAVMECADAAHGLKGHIISDGGCSCPGDVAKAFGAGADFVMLGGMLAGHSESGGELIERDGKKYKLFYGMSSEMAMKKYAGGVAEYRASEGKTVEVPFKGDVEHTIRDILGGIRSTCTYVGAAKLKELSRRTTFIRVTQQVNPIFSEAC [GMPR2] : 0.0286

---

Tested on: HeLa Kyoto
assay-comment: solubility in G1/S (NP-40 vs SDS abundance) (log2 ratio); higher = more soluble
assay-setup: cell cycle stage: G1/S
Rule: true for solubility in G1/S (log2) not less than 0.1, false for anything less.

1. MAAAAVSSAKRSLRGELKQRLRAMSAEERLRQSRVLSQKVIAHSEYQKSKRISIFLSMQDEIETEEIIKDIFQRGKICFIPRYRFQSNHMDMVRIESPEEISLLPKTSWNIPQPGEGDVREEALSTGGLDLIFMPGLGFDKHGNRLGRGKGYYDAYLKRCLQHQEVKPYTLALAFKEQICLQVPVNENDMKVDEVLYEDSSTA [MTHFS] : true
2. MRKIDLCLSSEGSEVILATSSDEKHPPENIIDGNPETFWTTTGMFPQEFIICFHKHVRIERLVIQSYFVQTLKIEKSTSKEPVDFEQWIEKDLVHTEGQLQNEEIVAHDGSATYLRFIIVSAFDHFASVHSVSAEGTVVSNLSS [HSPB11] : true
3. MEFDLGAALEPTSQKPGVGAGHGGDPKLSPHKVQGRSEAGAGPGPKQGHHSSSDSSSSSSDSDTDVKSHAAGSKQHESIPGKAKKPKVKKKEKGKKEKGKKKEAPH [IMUP] : true
4. MPKRKVSSAEGAAKEEPKRRSARLSAKPPAKVEAKPKKAAAKDKSSDKKVQTKGKRGAKGKQAEVANQETKEDLPAENGETKTEESPASDEAGEKEAKSD [HMGN1] : false
5. MSLTSSSSVRVEWIAAVTIAAGTAAIGYLAYKRFYVKDHRNKAMINLHIQKDNPKIVHAFDMEDLGDKAVYCRCWRSKKFPFCDGAHTKHNEETGDNVGPLIIKKKET [CISD1] : true

---

The following sequences are shown together with reported melting temperature values.
Tested on: HeLa Kyoto
assay-comment: melting temperature (median over replicates), in situ; higher = more thermally stable
assay-setup: cell cycle stage: G1/S
endpoint: melting temperature (°C)

1. MTKAGSKGGNLRDKLDGNELDLSLSDLNEVPVKELAALPKATILDLSCNKLTTLPSDFCGLTHLVKLDLSKNKLQQLPADFGRLVNLQHLDLLNNKLVTLPVSFAQLKNLKWLDLKDNPLDPVLAKVAGDCLDEKQCKQCANKVLQHMKAVQADQERERQRRLEVEREAEKKREAKQRAKEAQERELRKREKAEEKERRRKEYDALKAAKREQEKKPKKEANQAPKSKSGSRPRKPPPRKHTRSWAVLKLLLLLLLFGVAGGLVACRVTELQQQPLCTSVNTIYDNAVQGLRRHEILQWVLQTDSQQ [LRRC59] : 56.7
2. MAVVPLLLLGGLWSAVGASSLGVVTCGSVVKLLNTRHNVRLHSHDVRYGSGSGQQSVTGVTSVDDSNSYWRIRGKSATVCERGTPIKCGQPIRLTHVNTGRNLHSHHFTSPLSGNQEVSAFGEEGEGDYLDDWTVLCNGPYWVRDGEVRFKHSSTEVLLSVTGEQYGRPISGQKEVHGMAQPSQNNYWKAMEGIFMKPSELLKAEAHHAEL [SDF2] : 54.3
3. MEHFDASLSTYFKALLGPRDTRVKGWFLLDNYIPTFICSVIYLLIVWLGPKYMRNKQPFSCRGILVVYNLGLTLLSLYMFCELVTGVWEGKYNFFCQGTRTAGESDMKIIRVLWWYYFSKLIEFMDTFFFILRKNNHQITVLHVYHHASMLNIWWFVMNWVPCGHSYFGATLNSFIHVLMYSYYGLSSVPSMRPYLWWKKYITQGQLLQFVLTIIQTSCGVIWPCTFPLGWLYFQIGYMISLIALFTNFYIQTYNKKGASRRKDHLKDHQNGSMAAVNGHTNSFSPLENNVKPRKLRKD [ELOVL5] : 53.3

---

Tested on: HeLa Kyoto
assay-comment: solubility in G1/S (NP-40 vs SDS abundance) (log2 ratio); higher = more soluble
assay-setup: cell cycle stage: G1/S
Rule: fulfilled for solubility in G1/S (log2) not less than 0.1, not fulfilled for anything less.

1) MSSAPRSPTPRPRRMKKDESFLGKLGGTLARKRRAREVSDLQEEGKNAINSPMSPALVDVHPEDTQLEENEERTMIDPTSKEDPKFKELVKVLLDWINDVLVEERIIVKQLEEDLYDGQVLQKLLEKLAGCKLNVAEVTQSEIGQKQKLQTVLEAVHDLLRPRGWALRWSVDSIHGKNLVAILHLLVSLAMHFRAPIRLPEHVTVQVVVVRKREGLLHSSHISEELTTTTEMMMGRFERDAFDTLFDHAPDKLSVVKKSLITFVNKHLNKLNLEVTELETQFADGVYLVLLMGLLEDYFVPLHHFYLTPESFDQKVHNVSFAFELMLDGGLKKPKARPEDVVNLDLKSTLRVLYNLFTKYKNVE [PARVB] : not fulfilled
2) MGTDSRAAKALLARARTLHLQTGNLLNWGRLRKKCPSTHSEELHDCIQKTLNEWSSQINPDLVREFPDVLECTVSHAVEKINPDEREEMKVSAKLFIVESNSSSSTRSAVDMACSVLGVAQLDSVIIASPPIEDGVNLSLEHLQPYWEELENLVQSKKIVAIGTSDLDKTQLEQLYQWAQVKPNSNQVNLASCCVMPPDLTAFAKQFDIQLLTHNDPKELLSEASFQEALQESIPDIQAHEWVPLWLLRYSVIVKSRGIIKSKGYILQAKRRGS [GCLM] : fulfilled
3) MESGGRPSLCQFILLGTTSVVTAALYSVYRQKARVSQELKGAKKVHLGEDLKSILSEAPGKCVPYAVIEGAVRSVKETLNSQFVENCKGVIQRLTLQEHKMVWNRTTHLWNDCSKIIHQRTNTVPFDLVPHEDGVDVAVRVLKPLDSVDLGLETVYEKFHPSIQSFTDVIGHYISGERPKGIQETEEMLKVGATLTGVGELVLDNNSVRLQPPKQGMQYYLSSQDFDSLLQRQESSVRLWKVLALVFGFATCATLFFILRKQYLQRQERLRLKQMQEEFQEHEAQLLSRAKPEDRESLKSACVVCLSSFKSCVFLECGHVCSCTECYRALPEPKKCPICRQAITRVIPLYNS [MUL1] : fulfilled
4) MSGGLLKALRSDSYVELSQYRDQHFRGDNEEQEKLLKKSCTLYVGNLSFYTTEEQIYELFSKSGDIKKIIMGLDKMKKTACGFCFVEYYSRADAENAMRYINGTRLDDRIIRTDWDAGFKEGRQYGRGRSGGQVRDEYRQDYDAGRGGYGKLAQNQ [NCBP2] : not fulfilled
5) MGDHAWSFLKDFLAGGVAAAVSKTAVAPIERVKLLLQVQHASKQISAEKQYKGIIDCVVRIPKEQGFLSFWRGNLANVIRYFPTQALNFAFKDKYKQLFLGGVDRHKQFWRYFAGNLASGGAAGATSLCFVYPLDFARTRLAADVGKGAAQREFHGLGDCIIKIFKSDGLRGLYQGFNVSVQGIIIYRAAYFGVYDTAKGMLPDPKNVHIFVSWMIAQSVTAVAGLVSYPFDTVRRRMMMQSGRKGADIMYTGTVDCWRKIAKDEGAKAFFKGAWSNVLRGMGGAFVLVLYDEIKKYV [SLC25A4] : not fulfilled
